Ki data for D(3) dopamine receptor (Homo sapiens) follow.
Numbers only, in µM.

compound | unit symbol | Ki
CC(C)(C)NCc1ccc(-c2ccccc2)o1 [ZINC 4942833, 65] | µM | 8.67
CN(CCOc1cccc(F)c1)CC(O)c1c(F)cccc1F (stereo not drawn) [ZINC 51423503, 49] | µM | 8.74
c1ccc(-c2n[nH]cc2CNCc2ccc(Cn3ccnc3)cc2)cc1 [ZINC 42228310, 26] | µM | 9.31
Cc1cccc2nc(C(=O)NCC(c3ccco3)N(C)C)cn12 (stereo not drawn) [ZINC 41903371, 52] | µM | 10
C[C@H](O)CNCc1ccc(-c2cccc(Cl)c2)o1 [ZINC 4842613, 71] | µM | 0.488

Kindly note the recorded Ki for Clc1ccc(Cl)c(-c2ccc(CNC3CC3)o2)c1 [ZINC 4868730, 70] , which is 2.71
